SUBJECT_OF_TEST: T1, human glucagon receptor (human, UniProt P47871 26-477)
T1 construct: whole, on cells; reporter assay on whole cells
EXPERIMENTAL_DETAILS: SPA displacement of [125I]-glucagon from human glucagon receptor BHK membranes
*1 amine or outer side, *2 acyl side, *3 side chain or, on linkers, in order; H or OH if unused. Side-chain parts run from the residue outwards. [ ]: non-standard residue; d: D form. The star is where a group is joined. C18 diacid = O=C(O)CCCCCCCCCCCCCCCCC(=O)*; γGlu = O=C(O)[C@H](CCC(=O)[*:2])N[*:1]; Desaminohistidyl = O=C(CCc1c[nH]cn1)*; Aib = CC(C)(N)C(=O)O
So I've got a bunch of binders here, and I need their pIC50 values.
Lab note: report pIC50 as minus log10 of the concentration in molar units, number only.

Summary for this binder, [Desaminohistidyl][Aib]HGTFTSDVSKYLEAQAAREFIAWLLK([γGlu-γGlu-Ado-γGlu-γGlu-C18 diacid])T-NH2 : pIC50 is 8.77

// pIC50 value for [Desaminohistidyl][Aib]HGTFTSDVSKYLEEQAAREFIAWLLK([Gly-Ser-Glu-Gly-Ser-γGlu-γGlu-C18 diacid])T-NH2 : 8.49
